# assay: Cytotoxicity on normal cell line WI-38
# Assay type: cell-based, human
# particulars: human, WI-38 cells (normal fetal lung fibroblasts), WI38, 12.5uM (log conc. 1.1); read-out: % viability
readout type: viability at 12.5 µM
Numeric answer plus unit only.

In plain terms, CC(=O)c1ccc(NC(=O)c2sc3nc(C)c4c(c3c2N)CC(C)(O)C(C(C)=O)C4c2ccc(N(C)C)cc2)cc1 (stereo not shown) [Compound 8d] has a documented viability at 12.5 µM of 62.8%

====

Listed compounds paired with reported Toxicity %
# System: MCF7 cell line
# assay: In vitro cytotoxic activity, MTT method, MCF7
# Assay type: cell-based, human
# particulars: MCF7, Conc. 0.0487 µMol
Provide only the numeric value, understood in %.

Answered cases to consult:
{"columns": ["compound", "measurement units", "Toxicity %"],
 "data": [
  ["CC(=O)C1C(c2ccc(N(C)C)cc2)c2c(C)nc3sc(C(=O)Nc4ccc(Cl)cc4)c(N)c3c2CC1(C)O (stereo not shown)", "%", 26.68],
  ["CC(=O)c1ccc(NC(=O)c2sc3nc(C)c4c(c3c2N)CC(C)(O)C(C(C)=O)C4c2ccc(N(C)C)cc2)cc1 (stereo not shown)", "%", 21.79],
  ["CC(=O)C1C(c2ccc(N(C)C)cc2)c2c(C)nc3sc(C(=O)Nc4ccc(C)cc4)c(N)c3c2CC1(C)O (stereo not shown)", "%", 0.0678]
]}

Value of measured Toxicity % for the entry CC(=O)C1C(c2ccc(N(C)C)cc2)c2c(C)nc3sc(C(=O)Nc4ccccc4)c(N)c3c2CC1(C)O (stereo not shown) : -1.567
